# Test system: SK-MEL-2 melanoma
# PROCEDURE DETAILS: NCI-60 one-dose screen, 48 h
# MEASUREMENT PARAMETERS: 10 µM unless noted
Compounds without any hit were thinned out: in the full panel of roughly 83,000, 20% have a hit. Activity calls are given as the source filed them. The calls were made as follows: active = growth percent below 10; inactive = the rest.
Classes used: active, inactive

CCNC(=O)Oc1ccc(/C(=C(/C)c2ccccc2)c2ccc(OCCN3CCCCCC3)cc2)cc1	active
CS(=O)(=O)Nc1cc(-c2ccc3ncc(C#N)c(NCc4ccccc4F)c3c2)cnc1Cl	active
CCCCCc1ccc(S(=O)(=O)Nc2cccc(-c3csc(NCCN4CCN(C)CC4)n3)c2)cc1	inactive
CN1CCN(c2ccc(/C=N/n3cnc4oc(-c5ccccc5)cc4c3=N)cc2)CC1	inactive
O=C(CN1CCN(c2cc(=O)n(-c3ccccc3)c3ccccc23)CC1)Nc1ccc(F)cc1	inactive
COc1c(N2CC3CCCNC3C2)c(F)cc2c(=O)c(C(=O)N/N=C/c3ccc(F)cc3)cn(C3CC3)c12 (centres undefined)	inactive
NS(=O)(=O)c1ccc(Nc2nc(N/N=C/c3c[nH]c4ccccc34)nc(Nc3ccccc3)n2)cc1	inactive
C=C(C=O)[C@@H]1CC[C@]2(C)[C@H](CC=C3[C@H]4[C@@H](C)[C@H](C)CC[C@]4(C(=O)OC)CC[C@]32C)[C@@]1(C)CCC#N	active
COc1ccc([C@H]2c3[nH]c4ccccc4c3C[C@H]3C(=O)N(C4CCN(Cc5c(Cl)cccc5Cl)CC4)CC(=O)N23)c(OC)c1	inactive
COc1ccc(/C=C(\C#N)C(=O)N2c3ccccc3Sc3ccc(SC)cc32)cc1F	inactive
Nc1ncc(-c2ccc(NS(=O)(=O)c3ccc(Cl)c(Cl)c3)cc2)[nH]1	inactive
O=C(NNc1nc2cc(F)ccc2n2cccc12)c1ccncn1	inactive
O=C(Nc1cccc(C(F)(F)F)c1)c1cc(-c2ccc(F)cc2F)ccc1O	active
O=C1[C@@H]2Cc3c([nH]c4ccccc34)[C@H](c3c(Cl)cccc3Cl)N2C(=O)CN1C1CCN(CC2CCCCC2)CC1	inactive
NS(=O)(=O)c1ccc(Nc2nc(SCc3ccccc3)nc3ccccc23)cc1	inactive
Cc1cc2nc(C(Cl)Cl)nc(-c3cccs3)n2n1	inactive
CCO/C=N/C1=C(C#N)C(c2ccc(Cl)cc2)c2sc3c(CC)cccc3c2O1 (centres undefined)	inactive
Cc1ccc(-c2nnc(SCc3ccc(O)c4ncccc34)n2-c2ccccc2)cc1	active
O=C(/C=C/c1ccc(F)cc1)c1ccc(O)cc1	inactive
